assay: Cytotoxicity against dual-reporter HCV replicon Huh7 cells by measuring XTT end points after 72 hrs; format: cell-based, Huh-7; conditions: human
Metric name: CC50 at 72 h

Cc1cc(SC2=C(O)OC(CCc3ccc(O)cc3)(C3CCCC3)CC2=O)c(C(C)(C)C)cc1N (stereo not drawn): 242 µM
COc1cc(OC)c(CCC2(C3CCCC3)CC(O)=C(Sc3nc4nc(C)cc(C)n4n3)C(=O)O2)cc1Cl (stereo not drawn): > 320 µM

From here, focus on the item given below.
Req: Recorded CC50 at 72 h for OC[C@H]1O[C@@H](n2cnc3cc(Cl)c(Cl)cc32)[C@H](O)[C@@H]1O [DICHLORORIBOBENZIMIDAZOLE] , please?
Resp: 40.4 µM

====

molecular target: RNA-directed RNA polymerase (Hepacivirus hominis, UniProt O39930); experiment: Inhibition of recombinant HCV 1b BK NS5B polymerase by primer/template-directed transcription assay
Sequence (O39930 whole entry): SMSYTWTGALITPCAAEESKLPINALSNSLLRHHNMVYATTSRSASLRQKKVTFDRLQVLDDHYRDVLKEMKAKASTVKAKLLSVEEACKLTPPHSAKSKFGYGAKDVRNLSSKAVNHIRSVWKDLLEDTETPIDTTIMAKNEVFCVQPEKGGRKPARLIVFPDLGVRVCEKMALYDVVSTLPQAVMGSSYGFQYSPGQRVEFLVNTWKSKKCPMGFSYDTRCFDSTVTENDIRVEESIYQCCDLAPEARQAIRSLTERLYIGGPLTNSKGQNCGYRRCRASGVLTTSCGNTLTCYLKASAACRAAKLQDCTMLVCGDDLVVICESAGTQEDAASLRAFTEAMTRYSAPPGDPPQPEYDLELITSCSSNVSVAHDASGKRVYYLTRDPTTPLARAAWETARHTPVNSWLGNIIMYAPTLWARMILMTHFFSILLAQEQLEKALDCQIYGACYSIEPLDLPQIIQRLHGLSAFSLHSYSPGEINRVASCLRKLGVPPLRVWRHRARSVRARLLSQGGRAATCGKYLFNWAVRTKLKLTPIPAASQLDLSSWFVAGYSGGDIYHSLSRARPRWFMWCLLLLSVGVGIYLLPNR
Metric name: pIC50
Give bare numbers, as −log10 of the molar value.

Req: Recorded pIC50 for COc1cc(OC)c(CCC2(C3CCCC3)CC(O)=C(Sc3nc4nc(C)cc(C)n4n3)C(=O)O2)cc1Cl (stereo unspecified) , please?
Resp: 7.85

====

system: Hepatitis C virus; assay: Antiviral activity against HCV 1b con1 in dual-reporter HCV replicon Huh7 cells assessed as inhibition of HCV RNA after 72 hrs by RT-PCR; assay type: functional, organism-based, Hepacivirus hominis; details: genotype 1b con1, Huh-7, 72 h
Metric name: pEC50
Give bare numbers, as −log10 of the molar value.

Req: Recorded pEC50 for COc1cc(OC)c(CCC2(C3CCCC3)CC(O)=C(Sc3nc4nc(C)cc(C)n4n3)C(=O)O2)cc1Cl (stereo unspecified) , please?
Resp: 5.49

====

assay: Cytotoxicity against dual-reporter HCV replicon Huh7 cells by measuring FLuc reporter activity after 72 hrs; type: cell-based, Huh-7; conditions: human
I'd be grateful if you could share measured CC50 at 72 h for these entries.
Answers are plain numbers, in µM.

Cc1cc(SC2=C(O)OC(CCc3ccc(O)cc3)(C3CCCC3)CC2=O)c(C(C)(C)C)cc1N (stereo not drawn): 116

From here, focus on the item given below.
Req: Recorded CC50 at 72 h for OC[C@H]1O[C@@H](n2cnc3cc(Cl)c(Cl)cc32)[C@H](O)[C@@H]1O [DICHLORORIBOBENZIMIDAZOLE] , please?
Resp: 60.7
